Reported amplitude of prelead without presaturating MuSK (RU) values are given for each entry in this list.
Target: T1, Human MuSK (R&D Systems, cat. 10189-MK, histidine tag) (human, UniProt O15146 24-495)
T1 construct: Bought protein; also called human monomeric MuSK-6xhis; not shown: histidine tag (6xhis)
T1 sequence: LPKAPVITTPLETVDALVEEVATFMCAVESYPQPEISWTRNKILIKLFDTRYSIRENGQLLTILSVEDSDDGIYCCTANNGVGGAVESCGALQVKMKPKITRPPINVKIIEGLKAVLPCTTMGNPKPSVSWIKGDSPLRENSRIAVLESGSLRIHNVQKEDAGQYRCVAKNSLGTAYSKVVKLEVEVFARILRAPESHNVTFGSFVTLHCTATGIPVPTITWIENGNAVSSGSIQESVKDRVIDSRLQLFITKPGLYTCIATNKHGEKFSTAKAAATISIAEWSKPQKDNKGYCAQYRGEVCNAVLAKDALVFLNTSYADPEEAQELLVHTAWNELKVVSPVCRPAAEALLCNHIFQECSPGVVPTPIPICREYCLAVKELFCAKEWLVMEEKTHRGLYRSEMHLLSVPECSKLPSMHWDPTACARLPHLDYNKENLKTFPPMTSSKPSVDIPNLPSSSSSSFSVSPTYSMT
Test: SPR (Biacore), MuSK-coated chip, antibody alone (run of first antibody 3F6c)
Answer with a number only, understood to be in RU.

Some binders with known amplitude of prelead without presaturating MuSK (RU) results, for comparison:
>  <binder>
3D9b (antibody, human IgG1, kappa, L234A L235A, V domains shown) VH: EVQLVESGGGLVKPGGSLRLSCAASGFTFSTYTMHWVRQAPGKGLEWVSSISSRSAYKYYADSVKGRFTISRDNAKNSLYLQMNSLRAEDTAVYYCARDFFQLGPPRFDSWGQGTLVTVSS VL: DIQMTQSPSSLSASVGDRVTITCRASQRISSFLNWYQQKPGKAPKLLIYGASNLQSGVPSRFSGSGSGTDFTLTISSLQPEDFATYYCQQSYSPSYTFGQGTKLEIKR

>  <result-unit>
RU

>  <numeric-readout>
1660

$$$$
>  <binder>
4D3 (antibody, human IgG1, kappa, L234A L235A, V domains shown) VH: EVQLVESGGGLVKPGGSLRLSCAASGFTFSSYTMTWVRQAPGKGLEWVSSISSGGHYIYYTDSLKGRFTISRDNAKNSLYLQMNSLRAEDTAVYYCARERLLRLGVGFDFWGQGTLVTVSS VL: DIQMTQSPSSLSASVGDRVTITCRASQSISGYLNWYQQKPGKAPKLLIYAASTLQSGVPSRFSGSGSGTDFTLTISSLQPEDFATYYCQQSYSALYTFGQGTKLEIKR

>  <result-unit>
RU

>  <numeric-readout>
2390

$$$$
>  <binder>
3D10a (antibody, human IgG1, kappa, L234A L235A, V domains shown) VH: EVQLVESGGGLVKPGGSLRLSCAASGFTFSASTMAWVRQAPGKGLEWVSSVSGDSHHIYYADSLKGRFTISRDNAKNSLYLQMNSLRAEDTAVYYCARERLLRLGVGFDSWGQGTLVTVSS VL: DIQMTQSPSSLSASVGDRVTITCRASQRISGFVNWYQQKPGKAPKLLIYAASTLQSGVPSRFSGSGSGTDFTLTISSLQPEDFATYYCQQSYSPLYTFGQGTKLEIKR

>  <result-unit>
RU

>  <numeric-readout>
2370

$$$$
>  <binder>
3F6c (antibody, human IgG1, kappa, L234A L235A, V domains shown) VH: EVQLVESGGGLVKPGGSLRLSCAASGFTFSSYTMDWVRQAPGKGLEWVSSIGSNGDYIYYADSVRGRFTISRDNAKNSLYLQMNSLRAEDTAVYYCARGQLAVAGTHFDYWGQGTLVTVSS VL: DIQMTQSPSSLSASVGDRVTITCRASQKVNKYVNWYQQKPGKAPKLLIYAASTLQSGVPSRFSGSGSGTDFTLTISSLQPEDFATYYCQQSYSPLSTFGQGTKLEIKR

>  <result-unit>
RU

>  <numeric-readout>
3640

$$$$

Query string: I am curious: what amplitude of prelead without presaturating MuSK (RU) value has been reported for 3B5 (antibody, V domains shown, also called 3B5wt) VH: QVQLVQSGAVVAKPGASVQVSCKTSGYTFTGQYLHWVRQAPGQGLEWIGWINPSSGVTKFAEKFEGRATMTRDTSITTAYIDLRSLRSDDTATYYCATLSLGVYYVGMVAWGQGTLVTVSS VL: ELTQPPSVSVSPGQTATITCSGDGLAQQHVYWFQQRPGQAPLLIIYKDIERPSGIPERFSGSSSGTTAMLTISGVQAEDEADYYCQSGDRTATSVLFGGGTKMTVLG ?
Result string: 562
